# Target Entity: Thromboxane A2 receptor (Cavia porcellus)
# Assay Name: Compound was evaluated for its ability to inhibit specific binding of [3H]U-46619 to Thromboxane A2/ Prostaglandin H2 receptor in guinea pig platelet membrane
Quantity Kind: IC50 (nM)

{"Compound": "Cc1c(C)c(O)c(C(=CCCCCC(=O)O)c2ccc(F)cc2)c(C)c1O", "Obs Value": 1400}
{"Compound": "Cc1c(C)c(C(CCCCCC(=O)O)c2ccc(F)cc2)c(O)c(C)c1C=O (configuration not stated)", "Obs Value": 30}
